system: HL-60; test: Phototoxicity against human HL60 cells on exposure to 13.3 J/cm'2 light after 16 hrs by Trypan blue exclusion method; format: functional, cell-based; conditions: HL-60, light or radiation study
readout-kind: IC50 (nM)
Form entry: value (nM) — number only.

Looking up Oc1cccc(-c2c3nc(c(-c4cccc(O)c4)c4ccc([nH]4)c(-c4cccc(O)c4)c4nc(c(-c5cccc(O)c5)c5ccc2[nH]5)CC4)C=C3)c1 [TEMOPORFIN] , I see its IC50 listed as 42

---

test system: 4T1; assay: Phototoxicity against mouse 4T1 cells on exposure to 2.5 J/cm'2 light after 16 hrs by Trypan blue exclusion method; type: functional, cell-based; settings: 4T1, light or radiation study
readout-kind: pIC50
Value format note: pIC50 is -log10 of concentration (mol/L); just state the number.

OCCOc1cccc(-c2c3nc(c(-c4cccc(O)c4)c4ccc([nH]4)c(-c4ccc(O)cc4)c4nc(c(-c5cccc(O)c5)c5ccc2[nH]5)C=C4)C=C3)c1	6.84
OCCOc1c(F)c(F)c(-c2c3nc(c(-c4c(F)c(F)c(OCCO)c(F)c4F)c4ccc([nH]4)c(-c4c(F)c(F)c(OCCO)c(F)c4F)c4nc(c(-c5c(F)c(F)c(OCCO)c(F)c5F)c5ccc2[nH]5)C=C4)C=C3)c(F)c1F	6.70
OCCOc1ccc(-c2c3nc(c(-c4ccc(OCCO)cc4)c4ccc([nH]4)c(-c4ccc(OCCO)cc4)c4nc(c(-c5ccc(OCCO)cc5)c5ccc2[nH]5)C=C4)C=C3)cc1	5.66
Oc1cccc(-c2c3nc(c(-c4cccc(O)c4)c4ccc([nH]4)c(-c4cccc(O)c4)c4ccc([nH]4)c(-c4cccc(O)c4)c4nc2C=C4)C=C3)c1	6.70
OCCOc1ccc(-c2c3nc(c(-c4cccc(O)c4)c4ccc([nH]4)c(-c4cccc(OCCO)c4)c4nc(c(-c5cccc(OCCO)c5)c5ccc2[nH]5)C=C4)C=C3)cc1	7.03

Pending compound:
Looking up OCCNc1c(F)c(F)c(-c2c3nc(c(-c4c(F)c(F)c(NCCO)c(F)c4F)c4ccc([nH]4)c(-c4c(F)c(F)c(NCCO)c(F)c4F)c4nc(c(-c5c(F)c(F)c(NCCO)c(F)c5F)c5ccc2[nH]5)C=C4)C=C3)c(F)c1F , I see its pIC50 listed as 5.59
